Biological target: T1, HSA substrate solution; Albumin Human (Homo sapiens, UniProt P02768)
T1 construct: purchased Sigma-Aldrich Co
Experiment: Activity of various proteases on HSA substrate solution (released glycated amino acids/peptides assayed with R-FOD)
Type: biochemical
Conditions: pH 8.0; 37° C. for 30 minutes
OUTCOME_MEASURE: ΔA HSA (mAbs)

* Alcalase: protease, origin Bacillus (protein, UniProt P00780 106-379, looked up) Subtilisin Carlsberg: AQTVPYGIPLIKADKVQAQGFKGANVKVAVLDTGIQASHPDLNVVGGASFVAGEAYNTDGNGHGTHVAGTVAALDNTTGVLGVAPSVSLYAVKVLNSSGSGSYSGIVSGIEWATTNGMDVINMSLGGASGSTAMKQAVDNAYAKGVVVVAAAGNSGSSGNTNTIGYPAKYDSVIAVGAVDSNSNRASFSSVGAELEVMAPGAGVYSTYPTNTYATLNGTSMASPHVAGAAALILSKHPNLSASQVRNRLSSTATYLGSSFYYGKGLINVEAAAQ | 92
